- assay method text: Human HepG2 cell viability assay in 384 well format
- Format: toxicity, cell-based
- Design: dose 125 nL, time 70.5 hour; concentration not given beside the values
- condition label: HepG2 cells, read-out: Inhibition
Parameter cytotoxicity at 70.5 h: see the listing below.
Field: numeric (%). Do not append units.

{"molecule": "CCCc1cncnc1N1CCC(NCCc2ccc(O)cc2)CC1", "cytotoxicity at 70.5 h [%]": -6.17}
{"molecule": "CCCNC(=O)c1ccc2c(OC)n(C)nc2c1", "cytotoxicity at 70.5 h [%]": 0.507}
{"molecule": "CCc1ccccc1CN1CC[C@@H](NC(=O)c2cccnc2)[C@H](O)C1", "cytotoxicity at 70.5 h [%]": 1.15}
{"molecule": "Cc1nc(CN2CC[C@H]3C[C@H](c4ccncn4)O[C@@H]3C2)cs1", "cytotoxicity at 70.5 h [%]": -3.68}
{"molecule": "O=C(c1cc[nH]n1)N1CCOCC2(C1)CN(c1ccccc1)C(=O)CO2 (stereo unspecified)", "cytotoxicity at 70.5 h [%]": -12.1}

Then this molecule:
Lookup: Would you kindly share the measured cytotoxicity at 70.5 h for "O=C(NCCCn1nc2ccccn2c1=O)Nc1ccc(F)cc1F" ?
Found: -8.62

====

- assay method text: Human HepG2 cell viability assay in 384 well format
- Format: toxicity, cell-based
- Parameters: dose 125 nL, time 70.5 hour; concentration not given beside the values
- condition label: HepG2 cells, read-out: Inhibition
cytotoxicity at 70.5 h values, listed per item

For orientation, consider the following solved cases.
{"compound": "CC(OCC1CC1)C(=O)Nc1ncn(CC(=O)N2CCCCCC2)n1 (stereo unspecified)", "cytotoxicity at 70.5 h": "10.7%"}
{"compound": "Cn1ccnc1C(NCc1csc(Br)c1)c1ccccc1 (stereo unspecified)", "cytotoxicity at 70.5 h": "-1.31%"}
{"compound": "Fc1ccc(OCCCN2CC(n3cccn3)C2)cc1", "cytotoxicity at 70.5 h": "-8.19%"}
{"compound": "O=C(CCCNCc1ccccc1)N1CCCn2cncc2C1", "cytotoxicity at 70.5 h": "-4.58%"}
{"compound": "Cc1nc(C(C)NC(=O)c2cn(CCC3CCCCC3)nn2)n[nH]1 (stereo unspecified)", "cytotoxicity at 70.5 h": "-23.9%"}

Note: attention shifts to another entry.
Lookup: # lookup: cytotoxicity at 70.5 h of "CC(=O)c1cccc(S(=O)(=O)NCc2cccnc2N(C)C)c1"
Found: -6.06%

====

Catalogue of molecules with associated cytotoxicity at 70.5 h
- assay method text: Human HepG2 cell viability assay in 384 well format
- Type: toxicity, cell-based
- Parameters: dose 125 nL, time 70.5 hour; concentration not given beside the values
- condition label: HepG2 cells, read-out: Inhibition
Give just the numeric value; % need not be written.

Please review the following examples before continuing.
{"molecule": "O=C(NCCc1cccnc1)N1CCCC1c1ccsc1 (centres undefined)", "unit text": "%", "result number": -0.435}
{"molecule": "CCN(CC)Cc1ccc(C(=O)N2CCCC2Cn2cc(C)cn2)o1 (centres undefined)", "unit text": "%", "result number": 2.44}
{"molecule": "CC1c2ncc(Cn3cccn3)n2CCN1c1ncccn1 (centres undefined)", "unit text": "%", "result number": -8.84}
{"molecule": "COCCN(CC1CCCN(C2Cc3ccccc3C2)C1)C(=O)CSC (centres undefined)", "unit text": "%", "result number": -2.79}
{"molecule": "CSCCC(=O)NCc1cc2n(n1)CCCN(C1CCCCC1)C2", "unit text": "%", "result number": 34.5}
{"molecule": "COc1cccc2c1OCC(NC(=O)NC1CCN(C3CC3)CC1)C2 (centres undefined)", "unit text": "%", "result number": -5.93}
{"molecule": "Cc1ccc(CN(CCCO)Cc2nc3ccccc3[nH]2)s1", "unit text": "%", "result number": -3.29}
{"molecule": "Cc1oc(C)c(C(=O)NCc2cccc(NC(=O)CN(C)C)c2)c1C", "unit text": "%", "result number": -8.3}

Lookup: Suppose we examine the molecule CNC(=O)c1cn[nH]c1C1(C)CCCN(CC2(O)CCCCC2)C1 (centres undefined) ; what cytotoxicity at 70.5 h value has been reported?
Found: -6.79

Lookup: I am curious: what cytotoxicity at 70.5 h value has been reported for "CCN1CCN(c2ccc(CNC(=O)c3cnn(C)c3C)cn2)CC1" ?
Found: -8.48

Lookup: Name the recorded cytotoxicity at 70.5 h for "Cc1cc(C)c(CNC(=O)Cc2ccc3c(c2)CCCC3)c(=O)[nH]1" .
Found: -7.45

Lookup: Consider the molecule shown here: "CC1CCN(S(=O)(=O)NCCCn2cncn2)CC1" What is its recorded cytotoxicity at 70.5 h?
Found: -0.69

Lookup: Would you mind telling me what cytotoxicity at 70.5 h value was observed for "CC(C)Cc1noc(CN2CCN(c3nccs3)CC2)n1" ?
Found: -3.87

====

- assay method text: Human HepG2 cell viability assay in 384 well format
- Format: toxicity, cell-based
- Parameters: dose 125 nL, time 70.5 hour; concentration not given beside the values
- condition label: HepG2 cells, read-out: Inhibition
experimental endpoint: cytotoxicity at 70.5 h
Give the value; after it, write the unit.

{"compound": "NC(=O)NC(=O)CCSCc1coc(-c2ccc(F)cc2)n1", "cytotoxicity at 70.5 h": "-3.5%"}
{"compound": "Cn1cc(CN2C[C@@H]3COC[C@]3(CNC(=O)c3ccsc3)C2)cn1", "cytotoxicity at 70.5 h": "-5.87%"}
{"compound": "CCN(C)c1ncnc2c1CCN(C(=O)c1ccccn1)CC2", "cytotoxicity at 70.5 h": "17.4%"}

Lookup: Which cytotoxicity at 70.5 h value is on record for "CN(C)C(=O)[C@H]1C[C@@H]2CCN(C3CCOCC3)C[C@@H]2O1" ?
Found: -2.42%

Lookup: Look up cytotoxicity at 70.5 h for this compound: "Cc1ncsc1CN1C[C@@H](OCc2ccncc2)[C@H]2OCCC[C@H]21"
Found: 3.55%

====

- assay method text: Human HepG2 cell viability assay in 384 well format
- Assay type: toxicity, cell-based
- Parameters: dose 125 nL, time 70.5 hour; concentration not given beside the values
- condition label: HepG2 cells, read-out: Inhibition
experimental endpoint: cytotoxicity at 70.5 h (%)
Give the quantity in %, number only.

Consider the reported cytotoxicity at 70.5 h for these compounds:
{"compound": "COc1ccc(CNCC2CCN(CCO)CC2)cc1F", "cytotoxicity at 70.5 h [%]": -5.24}
{"compound": "CCCS(=O)(=O)N1CCC2(CCCN(Cc3cccc(F)c3F)C2=O)C1 (configuration not stated)", "cytotoxicity at 70.5 h [%]": -7.34}
{"compound": "C/C(NC(=O)c1ccco1)=C1/C(=O)C[C@@H]2[C@H]1C2(C)C", "cytotoxicity at 70.5 h [%]": -6.66}
{"compound": "COCCNc1c(C#N)c2c(c3nncn13)CN(C)CC2", "cytotoxicity at 70.5 h [%]": -5.01}

Lookup: May I ask what cytotoxicity at 70.5 h has been recorded for Cc1nn(C)c(C)c1NC(=O)CN1CCCC1c1c(C)nn(C)c1C (configuration not stated) ?
Found: -3.45

Lookup: Report cytotoxicity at 70.5 h for "CCn1ccnc1CN1CCCN(C(=O)c2cc(C)nn2CC)CC1" please.
Found: 3.88

Lookup: # lookup: cytotoxicity at 70.5 h of CC(NC(C)(C)CN)c1ccccc1 (configuration not stated)
Found: -0.00601

Lookup: For the compound shown here, CCOc1cc(F)ccc1NC(=O)NCC(c1cnn(C)c1)N(C)C (configuration not stated) , give the reported cytotoxicity at 70.5 h.
Found: -0.683

====

cytotoxicity at 70.5 h values, listed per item
- assay method text: Human HepG2 cell viability assay in 384 well format
- Format: toxicity, cell-based
- Design: dose 125 nL, time 70.5 hour; concentration not given beside the values
- condition label: HepG2 cells, read-out: Inhibition
// note: answer is a bare numeric in %

In the examples that follow, each entry is paired with its recorded cytotoxicity at 70.5 h.
{"molecule": "Cc1ncsc1C(=O)NCC1CCC2(CCNCC2)CO1 (stereo unspecified)", "cytotoxicity at 70.5 h / %": -6.8}
{"molecule": "Cc1cccc(-c2nc(C)nn2CC(=O)NCC(C)C)c1", "cytotoxicity at 70.5 h / %": 5.13}
{"molecule": "Cc1n[nH]c(C)c1C1CCCN1C(=O)NC(C)(C)C (stereo unspecified)", "cytotoxicity at 70.5 h / %": 4.46}
{"molecule": "CSCc1noc(CNS(=O)(=O)c2cccc(C(=O)NC3CC3)c2)n1", "cytotoxicity at 70.5 h / %": -10.1}
{"molecule": "O=C(Nc1ccccc1)C1CCCN(c2cc(-n3cncn3)ncn2)C1 (stereo unspecified)", "cytotoxicity at 70.5 h / %": -1.76}

Shifting focus to the molecule that follows.
Lookup: Query (molecule): O=S(=O)(c1ccccc1)N1CCC2(CCCN2Cc2ccccc2Cl)C1 (stereo unspecified) ; field requested: cytotoxicity at 70.5 h
Found: 22.5
